Below, each entry is listed alongside its reported koff.
Subject Of Test: T1, human activated protein C (APC) (human, UniProt P04070 43-461)
T1 construct: Bought (Haematologic Technologies; plasma-derived from Enzyme Research Laboratories); Two-chain disulfide-linked protease
Test Method Notes: BLI, VHH captured via anti-V5, APC in solution
The figure you give is taken to be in s⁻¹; do not add the unit.

binder="LP13 (SR16983-R3-P3-G08) (VHH, not shown: small tags and cut ends, Llama VHH purified from E. coli periplasm) VHH: QLQLVESGGGLVQAGGSLRLSCVASGTTFTIEDIGWHRQAPGKQLELVAVSRGGGNADYSDSVKGRFTISRDNAKTTVYLQMSSLKPEDTAVYYCIAKTKATTKWGRGIQVTVSS" value=0.00041

Let's switch to this binder now.
Request: I am curious: what koff value has been reported for LP11 (SR16983-R3-P3-F03) (VHH, not shown: small tags and cut ends, Llama VHH purified from E. coli periplasm; also made in CHO cells for the endothelial barrier assay) VHH: QLQLVESGGGLAQAGGSLRLSCAASGRTFVGSYVMGWFRQAPGKEREFVAASSRSTGNTVYLDSVKGRFTISRDDAKNTLFLQMNRLKPEDTAVYYCATRASVNYNYAAWPYWGQGTQVTVSS ?
Response: 0.00069

Reference source: patent US20250163183A1
